B1: SMTNL2 (parent)
chain: QKNFELAFTMAENLANCERLIEVE

- Variants of: B1
- Measurement Protocol: protein stability index of a GFP-peptide fusion (GPS, HEK-293T) (PSI 1-6); higher = more stable;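 also: lentivirally expressed fusions sorted by FACS into six bins by GFP to DsRed ratio, PSI derived from sequencing read proportions per bin multiplied by bin number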
- Stated Conditions: c terminus: a fixed tail appended
Tick YES if protein stability index is 2 or greater. Tick NO if protein stability index is less than 2.

Past entries and their recorded results:
variant_label=E12P assigned_label=YES
variant_label=L20T assigned_label=YES
variant_label=Q1T assigned_label=NO
variant_label=N3S assigned_label=NO

[ask] Kindly determine if protein stability index recorded for "N13Y" is above or exactly 2.
[reply] YES

[ask] Kindly determine if protein stability index recorded for "E18A" is above or exactly 2.
[reply] YES

[ask] Kindly determine if protein stability index recorded for "E22M" is above or exactly 2.
[reply] YES

[ask] Kindly determine if protein stability index recorded for "I21H" is above or exactly 2.
[reply] YES

[ask] Kindly determine if protein stability index recorded for "E24D" is above or exactly 2.
[reply] NO

Origin of values: the supplement of paper PMC10567573
